MEASURED_ON: p38g MAPK (Homo sapiens)
Sequence (P53778 whole entry): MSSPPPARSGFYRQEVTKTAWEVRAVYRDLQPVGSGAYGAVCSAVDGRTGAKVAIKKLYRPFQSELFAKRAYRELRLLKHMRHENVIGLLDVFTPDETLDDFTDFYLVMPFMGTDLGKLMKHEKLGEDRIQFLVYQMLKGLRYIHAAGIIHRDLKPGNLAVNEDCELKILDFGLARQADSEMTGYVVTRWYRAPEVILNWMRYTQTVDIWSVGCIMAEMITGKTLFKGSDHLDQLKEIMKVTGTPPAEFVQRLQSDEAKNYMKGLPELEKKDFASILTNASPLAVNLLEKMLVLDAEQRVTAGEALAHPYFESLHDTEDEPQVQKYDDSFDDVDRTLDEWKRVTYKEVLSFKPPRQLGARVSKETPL
TEST_DESCRIPTION: Kinase profiling p38g MAPK
Assay type: biochemical
MEASUREMENT_CONDITIONS: 100 micromolar inhibitor concentration; 100 is no change
From the text: Any value less that 25 is considered to be highly significant inhibition.
ENDPOINT: residual kinase activity, p38g MAPK
Give your answer as a number; write no unit.

## Task Please give measured residual kinase activity, p38g MAPK of the following entry: O=C(Nc1nc2ccc(O)cc2s1)c1ccccn1
## Result 89

## Task Please give measured residual kinase activity, p38g MAPK of the following entry: CC(=O)Nc1cccc(C(=O)Nc2nc3cc(O)ccc3s2)c1
## Result 64

## Task Please give measured residual kinase activity, p38g MAPK of the following entry: CC(=O)NC(C)C(=O)Nc1nc2ccc(C(F)(F)F)cc2s1 (stereo not drawn)
## Result 83

## Task Please give measured residual kinase activity, p38g MAPK of the following entry: O=C(Nc1nc2cc(O)ccc2s1)c1ccncc1
## Result 93

## Task Please give measured residual kinase activity, p38g MAPK of the following entry: O=C(Nc1nc2ccc(O)cc2s1)c1cccnc1
## Result 77

## Task Please give measured residual kinase activity, p38g MAPK of the following entry: O=C(Nc1nc2cc(O)ccc2s1)c1ccccn1
## Result 94
